Where do the numbers come from? From patent US20250057918A1.

Target: T1, human IL-18BP (amino acids 31-194) (human, UniProt O95998 31-194, biotinylated on the AviTag (BirA ligase) where immobilized or used for staining)
T1 construct: Secreted decoy receptor; made in insect cells (gp67 signal peptide); also called hIL-18BP
T1 sequence: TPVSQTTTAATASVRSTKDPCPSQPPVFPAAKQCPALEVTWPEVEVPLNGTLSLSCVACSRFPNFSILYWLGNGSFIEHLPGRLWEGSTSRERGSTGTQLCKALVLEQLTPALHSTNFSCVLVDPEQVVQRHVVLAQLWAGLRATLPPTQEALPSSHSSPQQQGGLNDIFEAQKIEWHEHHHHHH
Assay: on-yeast isotherms; KD IL-18BP / KD IL-18Rα (20 µM used for NBD)
A collection of binders and their measured KD ratio: IL-18BP/IL-18Rα
Keep the answer to the number alone.

Binder | Attribute measured | Obs value
6-29 (ligand, recombinant with C-terminal hexahistidine tag in SPR and cell assays; also called h6-29; version 2.0 human DR-IL-18 variant) YFGKLESKLSVIRNLNDQVLFIDQGNRPLFEDMTDSDCRDNAPRTIFIISKYSDSRARGLAVTISVKCEKISTLSCENKIISFKEMNPPDNIKDTKSDIIFFQRNVPGHGRKMQFESSSYEGYFLACEKERDLFKLILKKEDELGDRSIMFTVQNED | KD ratio: IL-18BP/IL-18Rα | 540

Return reported KD ratio: IL-18BP/IL-18Rα; argument: 6-31 (ligand, recombinant with C-terminal hexahistidine tag in SPR and cell assays; also called h6-31; version 2.0 human DR-IL-18 variant) YFGKLESKLSVIRNLNDQVLFIDQGNRPLFEDMTDSDCRDNAPRTIFIISKYGDSGARGLAVTISVKCEKISTLSCENKIISFKEMNPPDNIKDTKSDIIFFERDVPGHSGKVQFESSSYEGYFLACEKERDLFKLILKKEDELGDRSIMFTVQNED
490
